Values from patent US20190367516A1

Target: human M2 receptor (Homo sapiens, UniProt P08172)
Sequence (P08172 whole entry): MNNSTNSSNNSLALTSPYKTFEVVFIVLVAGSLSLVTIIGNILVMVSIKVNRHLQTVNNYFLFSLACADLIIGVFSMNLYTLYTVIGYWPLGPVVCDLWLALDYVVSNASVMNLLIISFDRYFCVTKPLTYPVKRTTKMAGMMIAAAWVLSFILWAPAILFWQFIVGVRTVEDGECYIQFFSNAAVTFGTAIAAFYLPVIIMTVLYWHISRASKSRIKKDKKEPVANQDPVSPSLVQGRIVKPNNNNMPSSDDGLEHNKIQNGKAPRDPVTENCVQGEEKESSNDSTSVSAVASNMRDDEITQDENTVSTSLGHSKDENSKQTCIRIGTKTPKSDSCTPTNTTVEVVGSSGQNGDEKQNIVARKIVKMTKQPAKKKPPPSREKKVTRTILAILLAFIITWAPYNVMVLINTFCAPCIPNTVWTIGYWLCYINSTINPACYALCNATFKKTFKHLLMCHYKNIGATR
Conditions: read-out: Efficiency, boosting of the acetylcholine effect at EC20 acetylcholine concentration; M2-GIRK1/4 reporter cells
measuredAttribute: Emax
Remember to put the unit after the number in your answer.

Reference set (3 entries):
[
  {
    "compound": "C[C@@H]1CN(c2ccc3c(=O)c(C(=O)N[C@@H](C4CC4)C(F)(F)F)cn(-c4c(F)cc(F)cc4F)c3n2)C(=O)N1",
    "observedValue": "98.4%"
  },
  {
    "compound": "CC(NC(=O)c1cn(-c2c(F)cc(F)cc2F)c2nc(N3C[C@@H](C)NC3=O)ccc2c1=O)C(F)(F)C(F)(F)F (mixture of isomers) [Example 458]",
    "observedValue": "100%"
  },
  {
    "compound": "O=C(N[C@H](C1CC1)C(F)(F)F)c1cn(-c2c(F)cccc2F)c2nc(N3CCNC3=O)ccc2c1=O",
    "observedValue": "100%"
  }
]

q: Recorded Emax for CC1(C)CN(c2ccc3c(=O)c(C(=O)N[C@@H](C4CC4)C(F)(F)F)cn(-c4c(F)cc(F)cc4F)c3n2)C(=O)N1 , please?
a: 91%

q: Recorded Emax for CCC(NC(=O)c1cn(-c2c(F)cc(F)cc2F)c2nc(N3C[C@@H](O)[C@H](O)C3)ccc2c1=O)C(C)C (mixture of isomers) , please?
a: 96.5%

q: Recorded Emax for COC1(C)CN(c2ccc3c(=O)c(C(=O)N[C@@H](C(C)(C)C)C(F)(F)F)cn(-c4c(F)cc(F)cc4F)c3n2)C1 , please?
a: 100%
